Entries with their measured pIC50, system Angiotensin II Receptor (Bos taurus, UniProt P25104):
pIC50: −log10 of the molar value.
observation-type: pIC50

CCCCc1nc2ccc(C(O)C3CCCS3(=O)=O)cc2c(=O)n1Cc1ccc(-c2ccccc2-c2nn[nH]n2)cc1 (single isomer, unassigned; isomer 2)    6.96
CCCCc1nc2ccc(C(OC)C3CCCN(C)C3=O)cc2c(=O)n1Cc1ccc(-c2ccccc2-c2nn[nH]n2)cc1 (single isomer, unassigned; isomer 2) [Example 43]    7.15
CCCCc1nc2ccc(C(O)C3CCN(C)C3=O)cc2c(=O)n1Cc1ccc(-c2ccccc2-c2nn[nH]n2)cc1 (single isomer, unassigned; isomer 1) [Example 32]    7.39

1. CCCCc1nc2ccc(C(C)(O)C3CCCN(C)C3=O)cc2c(=O)n1Cc1ccc(-c2ccccc2-c2nn[nH]n2)cc1 (single isomer, unassigned; isomer 1) [Example 52]
2. CCCCc1nc2ccc(C(O)C3CCCCN(C)C3=O)cc2c(=O)n1Cc1ccc(-c2ccccc2-c2nn[nH]n2)cc1 (single isomer, unassigned; isomer 2)
Q. Of 1 and 2 , which shows the smaller pIC50 value? # reply format: chosen label
A. 2
(2: 6.82, 1: 7.21)
